- procedure-details: JC-1 mitochondrial signal, unstimulated adipocytes – cell-based, JC-1 fluorescence, 3T3-L1 adipocytes, 24 h, 100 nL compound, profiling panel (AID 1168); also: test concentration not given here
- recorded-conditions: JC-1 mitochondrial fluorescence, higher = more signal, called active from +8 up or from −8 down
readout-label: z-score
Would you mind answering with just the numeric figure?

O=C1OCCC=C[C@H]2OC34C=CCN(Cn5nnc6ccccc65)C(=O)[C@H]3N(CCCO)C(=O)[C@@H]4C12 (stereo partly specified) ... 0.147

Field request: z-score | item: O=C(NCCN1CCOCC1)[C@@H]1c2ccccc2C(=O)N(C2Cc3ccccc3C2)[C@H]1c1ccc(CO)cc1
0.894

Next up: CN(C)c1ccc(C(O)C2C=CC3C(=O)NC(=O)C3N2Nc2ccccn2)cc1 (stereo unspecified)
-0.339

Next up: O=C1OCCC=C[C@H]2OC34C=CCN(c5ccc6ccccc6c5)C(=O)[C@H]3N(CCCO)C(=O)[C@@H]4C12 (stereo partly specified)
0.241

Next up: COC(=O)[C@@H]1N=C(c2ccc(OCCCO)cc2)O[C@@H]1C
0.797

Next up: O[C@@H](Cc1ccccc1)[C@@H](/C=C/C1CC1)N(CC#Cc1ccccc1)Cc1ccccc1Br
-0.344

Next up: CC(C)(C)OC(=O)CC[C@@]1(C(=O)NCC(O)CO)N=C(c2ccc(OCCCO)cc2)O[C@@H]1c1ccccc1CN=[N+]=[N-] (stereo partly specified)
0.0122

Next up: C#Cc1cc2ccccc2oc1=O
0.272
